Quick reference: hERG current change (%, negative = inhibition) at 10uM of the listed items.
MEASURED ON: human ether-à-go-go-related gene (hERG) potassium channel (human)
Sequence (Q12809 whole entry, looked up): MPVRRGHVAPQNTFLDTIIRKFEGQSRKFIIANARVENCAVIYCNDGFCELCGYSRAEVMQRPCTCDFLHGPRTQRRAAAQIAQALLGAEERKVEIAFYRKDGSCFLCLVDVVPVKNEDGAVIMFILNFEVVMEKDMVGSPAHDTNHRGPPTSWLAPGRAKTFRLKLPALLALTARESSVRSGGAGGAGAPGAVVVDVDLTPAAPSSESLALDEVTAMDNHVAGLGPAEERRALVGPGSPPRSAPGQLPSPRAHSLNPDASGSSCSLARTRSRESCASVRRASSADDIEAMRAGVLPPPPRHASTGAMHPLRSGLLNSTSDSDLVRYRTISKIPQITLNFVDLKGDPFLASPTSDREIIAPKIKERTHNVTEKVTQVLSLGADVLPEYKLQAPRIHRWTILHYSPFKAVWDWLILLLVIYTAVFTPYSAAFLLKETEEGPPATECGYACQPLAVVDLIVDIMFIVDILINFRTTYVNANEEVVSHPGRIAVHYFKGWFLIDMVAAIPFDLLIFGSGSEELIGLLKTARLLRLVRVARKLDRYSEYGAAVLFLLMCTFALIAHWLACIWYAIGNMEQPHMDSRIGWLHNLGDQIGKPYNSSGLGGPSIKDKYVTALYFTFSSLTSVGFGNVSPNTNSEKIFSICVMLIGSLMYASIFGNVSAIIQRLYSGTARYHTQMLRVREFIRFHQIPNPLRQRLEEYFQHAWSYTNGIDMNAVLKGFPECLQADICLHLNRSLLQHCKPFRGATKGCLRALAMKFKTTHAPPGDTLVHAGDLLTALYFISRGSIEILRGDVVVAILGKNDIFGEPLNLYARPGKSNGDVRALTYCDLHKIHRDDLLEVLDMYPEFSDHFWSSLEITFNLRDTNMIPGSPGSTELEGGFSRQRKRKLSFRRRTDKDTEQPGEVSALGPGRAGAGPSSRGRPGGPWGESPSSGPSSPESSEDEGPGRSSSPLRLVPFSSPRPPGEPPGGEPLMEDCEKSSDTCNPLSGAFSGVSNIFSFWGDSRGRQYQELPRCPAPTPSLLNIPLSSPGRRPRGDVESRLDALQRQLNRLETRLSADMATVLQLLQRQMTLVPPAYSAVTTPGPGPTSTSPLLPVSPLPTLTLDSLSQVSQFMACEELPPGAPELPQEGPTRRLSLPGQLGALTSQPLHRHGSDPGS
MEASUREMENT DESCRIPTION: primary screen, population patch clamp on CHO cells stably expressing hERG; higher = less effect of the substance;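 note: peak tail current of the secondary pulse compared with the same well before compound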
Out of some 310,000 compounds screened, about 14,000 (4.5%) showed an effect of 50% or more. The effect is printed as a negative number. Many of the other results were omitted from the sample, so strong results are more common in it than they were.
# value in %; strip the unit string

O=C(CN1CCCC1)Nc1ccc(F)cc1 :: 23.3
N#Cc1ccccc1NC(=S)NC(=O)c1cccnc1 :: 13.7

Here's the next entry for you.
What does the data say about its hERG current change (%, negative = inhibition) at 10uM? Entry: `O=C(CN1CCCC1)Nc1cc(C(F)(F)F)cc(C(F)(F)F)c1`
-17.9
